# Tested on: HeLa cervix epithelioid carcinoma
# method notes: MTT cell antiproliferative assay, HeLa
# Assay type: cell-based
# applied conditions: Homo sapiens, 72 h
quantity kind: IC50

COc1ccc(C(C)c2ccc(N(C)C)cc2)c(OC)c1OC (stereo not drawn)
> 1000 nM
COc1cc(C(=O)c2ccc([N+](C)(C)C)cc2)cc(OC)c1OC
> 1000 nM
C=C(c1ccnc(N2CCCC2)c1)c1cc(OC)c(OC)c(OC)c1
257 nM
COc1cc(C(=O)c2ccc(N(C)C)cc2)cc(OC)c1OC
90 nM
COc1ccc(C(=O)c2ccc(N(C)C)cc2)c(OC)c1OC
413 nM
COc1cc(C(C)c2cccc(N(C)C)c2)cc(OC)c1OC (stereo not drawn)
> 1000 nM
COc1cc(C=Cc2ccc([N+](C)(C)C)cc2)cc(OC)c1OC
> 1000 nM
COc1ccc(OC)c(C(=O)c2ccc(N(C)C)cc2)c1
> 1000 nM

Req: Request body: readout IC50, system HeLa cervix epithelioid carcinoma, query COc1ccc(OC)c(C(=NO)c2ccc(N(C)C)cc2)c1 . Return the value.
Resp: > 1000 nM

Req: Short answer please: IC50, HeLa cervix epithelioid carcinoma, entry COc1cc(C=Cc2ccnc(N3CCCC3)c2)cc(OC)c1OC
Resp: > 1000 nM

Req: Lookup: IC50 / HeLa cervix epithelioid carcinoma / COc1ccc(C(=O)c2ccc([N+](C)(C)C)cc2)c(OC)c1OC.[I-]
Resp: > 1000 nM

Req: Tell me reported IC50 for C=C(c1ccc(N2CCCC2)nc1)c1cc(OC)c(OC)c(OC)c1 , tested with HeLa cervix epithelioid carcinoma.
Resp: 523 nM
